From: patent US20230357320A1

Assay: CHI Log D measurement (chromatographic hydrophobicity index)
Settings: reverse-phase HPLC, Phenomenex Gemini C-18 column, pH 7.4
Starred links: 1 amine or outer side, 2 acyl side, 3 side chain; linkers in the order of their positions; H or OH if unused. Positions of bridges follow the written chain, without caps; N, C: chain ends. Non-standard residues stand in square brackets, D forms with d. Residues, ends and D or L forms follow the SMILES beside them. X1 = O=C([C@]1(CC=[*:3])CCCN1[*:1])[*:2]; S5 = C=CCCC[C@](C)(N)C(=O)O
experimental.endpoint: chromatographic logD

Given the entry CNC(=O)[C@H](CC(=O)O)NC(=O)[C@H](Cc1c[nH]cn1)NC(=O)[C@H](CC(C)C)NC(=O)[C@H](CC(C)C)NC(=O)[C@H](CCCNC(=N)N)NC(=O)[C@]1(C)CCCC=CC[C@]2(CCCN2C(C)=O)C(=O)N[C@@H](CC(C)C)C(=O)N[C@@H](CC(C)C)C(=O)N1 [PLL7-9] (Ac-[X1]LL[S5]RLLHD-NHMe; staple 1-4) , report its measured chromatographic logD.
2.1

Given the entry CNC(=O)[C@H](CC(=O)O)NC(=O)[C@H](CC(=O)O)NC(=O)[C@H](CC(C)C)NC(=O)[C@H](CC(C)C)NC(=O)[C@H](Cc1ccc(O)cc1)NC(=O)[C@]1(C)CCCC=CC[C@]2(CCCN2C(C)=O)C(=O)N[C@@H](CC(C)C)C(=O)N[C@@H](CC(C)C)C(=O)N1 [PLL5-2] (Ac-[X1]LL[S5]YLLDD-NHMe; staple 1-4) , report its measured chromatographic logD.
1.7

Given the entry CNC(=O)[C@H](Cc1ccc(O)cc1)NC(=O)[C@H](CC(=O)O)NC(=O)[C@H](CC(C)C)NC(=O)[C@H](CC(C)C)NC(=O)[C@H](Cc1ccc(O)cc1)NC(=O)[C@]1(C)CCCC=CC[C@]2(CCCN2C(C)=O)C(=O)N[C@@H](CC(C)C)C(=O)N[C@@H](CC(C)C)C(=O)N1 [PLL5-1] (Ac-[X1]LL[S5]YLLDY-NHMe; staple 1-4) , report its measured chromatographic logD.
2.4
